# Assay System: recombinant MDM2 protein (Homo sapiens (Human))
# Sequence (Q00987 whole entry): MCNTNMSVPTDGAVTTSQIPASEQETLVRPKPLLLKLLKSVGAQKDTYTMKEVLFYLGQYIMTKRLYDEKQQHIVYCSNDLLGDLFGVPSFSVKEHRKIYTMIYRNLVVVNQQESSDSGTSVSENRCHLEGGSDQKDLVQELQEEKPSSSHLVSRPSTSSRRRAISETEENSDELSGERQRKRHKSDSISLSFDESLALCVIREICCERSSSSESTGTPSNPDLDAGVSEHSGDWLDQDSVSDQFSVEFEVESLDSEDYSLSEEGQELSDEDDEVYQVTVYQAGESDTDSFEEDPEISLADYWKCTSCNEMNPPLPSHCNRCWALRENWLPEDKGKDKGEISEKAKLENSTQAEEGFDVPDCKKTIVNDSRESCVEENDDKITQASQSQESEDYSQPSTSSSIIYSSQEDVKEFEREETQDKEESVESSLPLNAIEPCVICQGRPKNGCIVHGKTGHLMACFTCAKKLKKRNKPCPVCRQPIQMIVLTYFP
# Run Parameters: competitive binding vs fluorescently labeled peptide probe, 10% DMSO, pH 7.2; read-out: Fluorescence Polarization Assay KI
pKi: −log10 of the molar value.

{"Molecule": "CC(=O)Nc1cc(C(F)(F)F)cnc1N1CCN(CC(=O)O)CC1c1ccc(Cl)cc1 (stereo not shown) [Compound 2]", "Assay System": "recombinant MDM2 protein (Homo sapiens (Human))", "pKi": 3.93}

These data points were gathered from patent US11504381B1.
